Recorded λbs2 values for a group of molecules are listed next.
- experimental_protocol: Absorption and emission spectra of dyes in different solvents
- Type: physicochemical
- assay_setup: solvent THF
- From the text: In the present invention, compounds IIa to IIg were synthesized based on compound II, and their spectral properties were investigated. […]
experimental_readout: λbs2 (nm)

INSERT INTO assay_data (chemical_string, experimental_readout, test_result) VALUES
  ('CCN1/C(=C/C=C/C(=C/C2=[N+](CC)c3ccccc3C2(C)C)NCCO)C(C)(C)c2ccccc21', 'λbs2', 427),
  ('CCN1/C(=C/C=C/C(N)=C/C2=[N+](CC)c3ccccc3C2(C)C)C(C)(C)c2ccccc21', 'λbs2', 408),
  ('CCN1/C(=C/C=C/C(=C/C2=[N+](CC)c3ccccc3C2(C)C)NCc2ccccc2)C(C)(C)c2ccccc21', 'λbs2', 426);
